- Tested on: Huh7 tumor cells
- Assay method text: Inhibition of Huh-7 tumor cell proliferation (CellTiter Glo)
- Format: cell-based
- Experimental conditions: Homo sapiens, 72 or 168 hours
In this section we review reported IC50 values for a set of compounds.

Use the examples below as a reference point.
N#Cc1cnc(NC(=O)N2CCCc3cc(CN4CCN(C5CC5)CC4=O)c(C=O)nc32)cc1OC1CC1 [Compound 4]: < 500 nM
CN1CCN(Cc2cc3c(nc2C=O)N(C(=O)Nc2cc(OC4CC4)c(C#N)cn2)CCC3)C(=O)C1 [Compound 1]: < 50 nM
COCC1(Oc2cc(NC(=O)N3CCCc4cc(CN5CCN(C)CC5=O)c(C=O)nc43)ncc2C#N)CC1 [Compound 7]: < 500 nM

Next item in the queue.
Q. Lab note: need IC50 for COC1CCC(Oc2cc(NC(=O)N3CCCc4cc(CN5CCN(C)CC5=O)c(C=O)nc43)ncc2C#N)CC1 (stereo not shown) [Compound 2] on Huh7 tumor cells, anyone have it?
A. < 50 nM

###

In this section we review reported IC50 values for a set of molecules.
- Study system: FGFR1 (Homo sapiens, UniProt P11362)
- Sequence (P11362 22-822): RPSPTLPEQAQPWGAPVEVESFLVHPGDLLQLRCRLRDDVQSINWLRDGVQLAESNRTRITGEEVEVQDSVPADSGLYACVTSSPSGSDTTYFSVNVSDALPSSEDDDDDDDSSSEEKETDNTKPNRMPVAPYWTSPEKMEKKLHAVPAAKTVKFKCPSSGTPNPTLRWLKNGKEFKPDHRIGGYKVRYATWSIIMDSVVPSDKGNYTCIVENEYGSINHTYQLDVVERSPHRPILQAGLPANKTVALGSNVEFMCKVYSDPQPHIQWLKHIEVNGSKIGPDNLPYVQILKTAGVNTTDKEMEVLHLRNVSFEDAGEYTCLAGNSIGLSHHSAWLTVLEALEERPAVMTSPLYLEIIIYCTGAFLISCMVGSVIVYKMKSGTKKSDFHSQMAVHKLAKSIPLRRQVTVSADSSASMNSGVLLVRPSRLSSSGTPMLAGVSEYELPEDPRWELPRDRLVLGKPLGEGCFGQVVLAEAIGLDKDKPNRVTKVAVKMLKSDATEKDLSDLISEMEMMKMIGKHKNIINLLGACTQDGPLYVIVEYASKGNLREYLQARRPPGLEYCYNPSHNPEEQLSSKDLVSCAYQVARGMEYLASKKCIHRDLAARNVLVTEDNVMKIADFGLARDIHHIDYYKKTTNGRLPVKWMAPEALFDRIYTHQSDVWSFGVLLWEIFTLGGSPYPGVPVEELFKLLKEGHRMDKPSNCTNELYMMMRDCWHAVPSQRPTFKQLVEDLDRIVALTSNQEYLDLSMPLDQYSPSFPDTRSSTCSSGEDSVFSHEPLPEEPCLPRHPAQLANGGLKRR
- Assay method text: FGFR1 kinase activity inhibition (Caliper mobility shift assay)
- Type: biochemical
- Experimental conditions: FAM-labeled peptide and ATP, 28° C. 30-60 minutes, read-out: FGFR kinase inhibition (IC50, nM) FGFR1

COC1CCC(Oc2cc(NC(=O)N3CCCc4cc(CN5CCN(C)CC5=O)c(C=O)nc43)ncc2C#N)CC1 (centres unmarked): > 10000 nM

Next item in the queue.
Q. Which IC50 reading was recorded for the molecule CN1CCN(Cc2cc3c(nc2C=O)N(C(=O)Nc2cc(OC4CC4)c(C#N)cn2)CCC3)C(=O)C1 ?
A. > 10000 nM

###

- System: Huh7 tumor cells
- Assay method text: Inhibition of Huh-7 tumor cell proliferation (CellTiter Glo)
- Type: cell-based
- Experimental conditions: Homo sapiens, 72 or 168 hours
pIC50: −log10 of the molar value.
In this section we review reported pIC50 values for a set of compounds.

CN1CCCN(Cc2cc3c(nc2C=O)N(C(=O)Nc2cc(OC4CC4)c(C#N)cn2)CCC3)C(=O)C1: > 7.30

Q. Lab note: need pIC50 for N#Cc1cnc(NC(=O)N2CCCc3cc(CN4CC5CCCN5CC4=O)c(C=O)nc32)cc1OC1CC1 (stereo not drawn) on Huh7 tumor cells, anyone have it?
A. > 6.30

Q. Lab note: need pIC50 for CO[C@H]1CC[C@@H](Nc2cc(NC(=O)N3CCCc4cc(CN5CCN(C)CC5=O)c(C=O)nc43)ncc2C#N)CC1 on Huh7 tumor cells, anyone have it?
A. > 7.30

###

In this section we review reported IC50 values for a set of molecules.
- Study system: FGFR4 (Homo sapiens, UniProt P22455)
- Sequence (P22455 22-802): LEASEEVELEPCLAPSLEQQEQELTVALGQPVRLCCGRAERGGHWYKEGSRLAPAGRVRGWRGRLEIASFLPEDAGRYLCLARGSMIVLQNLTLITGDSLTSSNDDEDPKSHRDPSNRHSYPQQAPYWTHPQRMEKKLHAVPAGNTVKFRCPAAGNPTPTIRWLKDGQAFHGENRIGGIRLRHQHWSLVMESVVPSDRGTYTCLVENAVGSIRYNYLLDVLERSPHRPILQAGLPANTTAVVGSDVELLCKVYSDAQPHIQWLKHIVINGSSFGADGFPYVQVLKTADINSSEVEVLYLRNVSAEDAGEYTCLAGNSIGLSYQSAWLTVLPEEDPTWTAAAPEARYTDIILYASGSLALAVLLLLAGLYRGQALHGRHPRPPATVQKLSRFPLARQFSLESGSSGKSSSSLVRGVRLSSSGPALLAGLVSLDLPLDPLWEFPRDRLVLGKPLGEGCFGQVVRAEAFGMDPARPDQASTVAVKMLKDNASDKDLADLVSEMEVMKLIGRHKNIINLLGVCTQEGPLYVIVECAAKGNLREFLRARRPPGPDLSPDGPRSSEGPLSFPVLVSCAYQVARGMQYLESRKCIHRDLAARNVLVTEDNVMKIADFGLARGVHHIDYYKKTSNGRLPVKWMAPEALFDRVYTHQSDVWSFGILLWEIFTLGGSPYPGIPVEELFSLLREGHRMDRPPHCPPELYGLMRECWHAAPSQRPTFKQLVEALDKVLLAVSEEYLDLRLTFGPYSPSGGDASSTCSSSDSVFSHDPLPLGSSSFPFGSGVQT
- Assay method text: FGFR4 kinase activity inhibition (Caliper mobility shift assay)
- Format: biochemical
- Experimental conditions: FAM-labeled peptide and ATP, 28° C. 30-60 minutes, read-out: FGFR kinase inhibition (IC50, nM) FGFR4

Use the examples below as a reference point.
COCCNc1cc(NC(=O)N2CCCc3cc(CN4CCN5CCCC5C4=O)c(C=O)nc32)ncc1C#N (stereo not drawn): < 5 nM
COCCNc1cc(NC(=O)N2CCCc3cc(CN4CCN(C5CN(C)C5)CC4=O)c(C=O)nc32)ncc1C#N: < 5 nM
COCCNc1cc(NC(=O)N2CCCc3cc(CN4CCCN(C)CC4=O)c(C=O)nc32)ncc1C#N: < 5 nM
CN1CCN(Cc2cc3c(nc2C=O)N(C(=O)Nc2cc(NC4CC4)c(C#N)cn2)CCC3)C(=O)C1: < 5 nM
N#Cc1cnc(NC(=O)N2CCCc3cc(CN4CCN(C5CC5)CC4=O)c(C=O)nc32)cc1OC1CC1: < 20 nM

Q. Which IC50 reading was recorded for the molecule COC1CC(Nc2cc(NC(=O)N3CCCc4cc(CN5CCN(C)CC5=O)c(C=O)nc43)ncc2C#N)C1 (stereo not drawn) ?
A. < 5 nM
